Target: UniProtKB P08908
Test: 5-HT1A receptor affinity: displacement of [3H] 8-OH-DPAT
Type: binding
Set-up: expressed in transfected cells
Details: read-out: 5-HT1A Receptor Affinity, % @ 1 μM
Param threshold (40%) applies to inhibition at 1 µM; output Y when value >= threshold, N when value < threshold.

[[record]]
compound = "NC(=O)c1ccc(F)c2c1CC(NCCCc1c[nH]c3ccc(F)cc13)CO2 (single isomer, unassigned; (-))"
discrete_label = "Y"

[[record]]
compound = "CNC(=O)c1ccc(F)c2c1CC(NCCCCc1c[nH]c3ccc(F)cc13)CO2 (centres unmarked)"
discrete_label = "Y"

[[record]]
compound = "NC(=O)c1ccc(F)c2c1OCC(N(CCCc1c[nH]c3ccc(F)cc13)C1CCC1)C2 (centres unmarked)"
discrete_label = "N"

[[record]]
compound = "CC(CCc1c[nH]c2c(F)cc(F)cc12)N(CC1CC1)C1COc2c(F)ccc(C(N)=O)c2C1 (single isomer, unassigned) [Compound 154d]"
discrete_label = "N"

[[record]]
compound = "CCCCCN(CCCc1c[nH]c2ccc(F)cc12)C1COc2c(F)ccc(C(N)=O)c2C1 (centres unmarked)"
discrete_label = "Y"

[[record]]
compound = "NC(=O)c1ccc(F)c2c1OCC(N(CCCc1c[nH]c3c(F)cc(F)cc13)C1CCC1)C2 (centres unmarked)"
discrete_label = "Y"

[[record]]
compound = "COC(=O)c1ccc(F)c2c1C[C@H](N(CCCCc1c[nH]c3ccc(F)cc13)C1CCC1)CO2 [Compound 58a]"
discrete_label = "N"

[[record]]
compound = "COc1cccc2c1CC(N[C@H]1CC[C@@H](c3c[nH]c4ccc(C#N)cc43)CC1)CO2 (relative stereo) [Compound 180a]"
discrete_label = "N"

[[record]]
compound = "NC(=O)c1ccc(F)c2c1CC(NCCCn1ccc3ccccc31)CO2 (centres unmarked)"
discrete_label = "Y"

[[record]]
compound = "COc1cccc2c1CC(N[C@H]1CC[C@H](c3c[nH]c4ccc(C#N)cc43)CC1)CO2 (relative stereo) [Compound 180b]"
discrete_label = "N"

[[record]]
compound = "NC(=O)c1ccc(F)c2c1C[C@@H](NCC1CCc3c([nH]c4ccc(F)cc34)C1)CO2 (single isomer, unassigned; (+)) [Compound 179a]"
discrete_label = "Y"

[[record]]
compound = "CC(C1CC1)N(CCCc1c[nH]c2ccc(F)cc12)C1COc2c(F)ccc(C(N)=O)c2C1 (centres unmarked)"
discrete_label = "N"

[[record]]
compound = "NC(=O)c1ccc(F)c2c1CC(N(CC1CCc3[nH]c4ccc(F)cc4c3C1)C1CCC1)CO2 (single isomer, unassigned; (-)) [Compound 174a]"
discrete_label = "Y"

[[record]]
compound = "NC(=O)c1ccc(F)c2c1OCC(NCCCc1c[nH]c3c(F)cc(F)cc13)C2 (centres unmarked)"
discrete_label = "Y"

[[record]]
compound = "CCN(CCc1c[nH]c2ccc(F)cc12)C1COc2c(F)ccc(C(=O)NC)c2C1 (centres unmarked)"
discrete_label = "Y"

[[record]]
compound = "NC(=O)c1ccc(F)c2c1OCC(N(CCCCc1c[nH]c3ccc(F)cc13)C1CCC1)C2 (centres unmarked)"
discrete_label = "N"

[[record]]
compound = "O=C(O)c1cccc2c1CC(N(CCCc1c[nH]c3c(F)cc(F)cc13)C1CCC1)CO2 (centres unmarked)"
discrete_label = "N"

[[record]]
compound = "COc1cccc2c(CCN(C3CCC3)C3COc4c(F)ccc(C(N)=O)c4C3)coc12 (centres unmarked)"
discrete_label = "N"

[[record]]
compound = "O=C(O)c1ccc(F)c2c1CC(N(CCCc1c[nH]c3ccc(F)cc13)C1CCC1)CO2 (centres unmarked)"
discrete_label = "N"

[[record]]
compound = "O=C(NC1CCCCC1)c1ccc(F)c2c1CC(N(CCCc1c[nH]c3ccc(F)cc13)C1CCC1)CO2 (centres unmarked)"
discrete_label = "Y"

[[record]]
compound = "CCCN(CCCCc1c[nH]c2ccc(F)cc12)C1COc2c(C(N)=O)ccc(F)c2C1 (centres unmarked)"
discrete_label = "Y"

[[record]]
compound = "NC(=O)c1ccc(F)c2c1CC(NCCCCc1c[nH]c3ccc(F)cc13)CO2 (centres unmarked)"
discrete_label = "Y"

[[record]]
compound = "COc1cccc2c1CC(N[C@H]1CC[C@H](c3c[nH]c4ccc(F)cc43)CC1)CO2 (relative stereo) [Compound 181b]"
discrete_label = "Y"

[[record]]
compound = "COc1cccc2c(CCNC3COc4c(F)ccc(C(N)=O)c4C3)coc12 (centres unmarked)"
discrete_label = "N"

[[record]]
compound = "NC(=O)c1ccc(F)c2c1CC(NCCc1c[nH]c3ccc(F)cc13)CO2 (centres unmarked)"
discrete_label = "N"

[[record]]
compound = "COc1cccc2c(CCCNC3COc4c(F)ccc(C(N)=O)c4C3)c[nH]c12 (centres unmarked)"
discrete_label = "Y"


* * *

Target: 5-HT1A receptor (Homo sapiens, UniProt P08908)
Sequence (P08908 whole entry): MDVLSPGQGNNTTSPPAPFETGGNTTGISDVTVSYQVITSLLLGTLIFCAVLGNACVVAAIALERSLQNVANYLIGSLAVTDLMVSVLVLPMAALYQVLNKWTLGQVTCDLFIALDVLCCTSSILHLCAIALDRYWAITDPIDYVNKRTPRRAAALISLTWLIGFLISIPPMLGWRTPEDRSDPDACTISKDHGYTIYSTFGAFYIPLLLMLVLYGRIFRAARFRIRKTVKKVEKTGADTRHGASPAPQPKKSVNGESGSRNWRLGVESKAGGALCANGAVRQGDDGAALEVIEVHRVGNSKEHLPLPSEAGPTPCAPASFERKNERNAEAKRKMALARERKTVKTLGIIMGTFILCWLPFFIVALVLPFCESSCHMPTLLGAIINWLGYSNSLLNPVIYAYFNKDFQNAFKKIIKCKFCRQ
Assay: cAMP accumulation assay, 5-HT1A function
Type: cell-based
Conditions: in brackets after EC50 or IC50
endpoint: 5-HT1A Function cAMP (Emax) (%)

[[record]]
compound = "CCCN(C(C)CCc1c[nH]c2ccc(F)cc12)C1COc2c(F)ccc(C(N)=O)c2C1 (single isomer, unassigned) [Compound 12a]"
quantitative_result = 0

[[record]]
compound = "CCCN(C(C)CCCc1c[nH]c2ccc(F)cc12)C1COc2c(F)ccc(C(N)=O)c2C1 (single isomer, unassigned; (-)) [Compound 14b]"
quantitative_result = 0

[[record]]
compound = "CCCN(CCCc1c[nH]c2ccc(F)cc12)C1CCc2c(F)ccc(OC)c2C1 (single isomer, unassigned; (+)) [Compound 51a]"
quantitative_result = 100

[[record]]
compound = "COC(=O)c1ccc(F)c2c1CC(N(CCCc1c[nH]c3ccc(F)cc13)C1CCC1)CO2 (stereo not drawn)"
quantitative_result = 0

[[record]]
compound = "CCCN(C(C)CCc1c[nH]c2ccc(C#N)cc12)C1COc2c(F)ccc(C(N)=O)c2C1 (single isomer, unassigned) [Compound 13a]"
quantitative_result = 0

[[record]]
compound = "CCCN(C(C)CCc1c[nH]c2ccc(F)cc12)C1COc2c(F)ccc(C(N)=O)c2C1 (single isomer, unassigned) [Compound 12b]"
quantitative_result = 78

[[record]]
compound = "NC(=O)c1cccc2c1CC(N(CCCc1c[nH]c3ccc(F)cc13)C1CCC1)CO2 (single isomer, unassigned; (-)) [Compound 134a]"
quantitative_result = 89

[[record]]
compound = "NC(=O)c1ccc(F)c2c1C[C@@H](NCC1CCc3[nH]c4ccc(F)cc4c3C1)CO2 (single isomer, unassigned; (+)) [Compound 175b]"
quantitative_result = 0

[[record]]
compound = "CCN(CC1CCc2[nH]c3ccc(F)cc3c2C1)[C@H]1COc2c(F)ccc(C(N)=O)c2C1 (single isomer, unassigned; (+)) [Compound 176b]"
quantitative_result = 0

[[record]]
compound = "NC(=O)c1ccc(F)c2c1CC(N(CCCc1c[nH]c3ccc(F)cc13)CC1CC1)CO2 (single isomer, unassigned; (+)) [Compound 5b]"
quantitative_result = 69

[[record]]
compound = "CCCN(CC1CCc2[nH]c3ccc(F)cc3c2C1)[C@H]1COc2c(F)ccc(C(N)=O)c2C1 (single isomer, unassigned; (+)) [Compound 177b]"
quantitative_result = 0

[[record]]
compound = "CCCN(C(C)CCc1c[nH]c2ccc(C#N)cc12)C1COc2c(F)ccc(C(N)=O)c2C1 (single isomer, unassigned) [Compound 13b]"
quantitative_result = 68

[[record]]
compound = "NC(=O)c1cccc2c1CC(N(CCCc1c[nH]c3ccc(F)cc13)C1CCC1)CO2 (single isomer, unassigned; (+)) [Compound 134b]"
quantitative_result = 66.5

[[record]]
compound = "CC(CCc1c[nH]c2ccc(F)cc12)N(CC1CC1)C1COc2c(F)ccc(C(N)=O)c2C1 (single isomer, unassigned; (-)) [Compound 15a]"
quantitative_result = 0

[[record]]
compound = "CCN(C(C)CCc1c[nH]c2ccc(F)cc12)C1COc2c(F)ccc(C(N)=O)c2C1 (single isomer, unassigned; (+)) [Compound 16b]"
quantitative_result = 64.5

[[record]]
compound = "CCN(CCCc1c[nH]c2ccc(F)cc12)C1COc2c(F)ccc(C(N)=O)c2C1 (single isomer, unassigned; (+)) [Compound 3b]"
quantitative_result = 90.5

[[record]]
compound = "NC(=O)c1ccc(F)c2c1C[C@@H](N(CC1CC1)CC1CCc3[nH]c4ccc(F)cc4c3C1)CO2 (single isomer, unassigned; (+)) [Compound 178b]"
quantitative_result = 0

[[record]]
compound = "CCCN(C(C)CCc1c[nH]c2ccc(F)cc12)C1COc2c(F)ccc(C(N)=O)c2C1 (single isomer, unassigned) [Compound 12c]"
quantitative_result = 0

[[record]]
compound = "NC(=O)c1ccc(F)c2c1CC(N(CCCc1c[nH]c3ccc(F)cc13)CC1CC1)CO2 (single isomer, unassigned; (-)) [Compound 5a]"
quantitative_result = 0

[[record]]
compound = "NC(=O)c1ccc(F)c2c1CC(N(CC1CCc3[nH]c4ccc(F)cc4c3C1)C1CCC1)CO2 (single isomer, unassigned; (+)) [Compound 174c]"
quantitative_result = 0

[[record]]
compound = "NC(=O)c1ccc(F)c2c1CC(N(CCCc1c[nH]c3c(F)cc(F)cc13)C1CCC1)CO2 (single isomer, unassigned; (+))"
quantitative_result = 0

